- Tested on: UO-31 renal
- Procedure Text: NCI-60 one-dose screen, 48 h (100 = growth as untreated, 0 = no growth, -100 = all killed)
- Study Conditions: 10 µM unless noted
About 83,000 compounds went through this panel and 20% of them were active in at least one assay; those are over-represented in the sample as a whole. Activity calls are given as the source filed them. Rule for the calls: active = growth percent below 10; inactive = the rest.
Quantity Kind: growth

Study these solved cases before continuing.
[
  {
    "Compound": "CS(=O)(=O)N1CCc2c(-c3cnc(N)nc3)nc(N3CCOCC3)nc21",
    "growth": "-21.8% (active)"
  },
  {
    "Compound": "COC(=O)[C@@H](OC)[C@@H]1Cc2cc3cc(OC4CC(OC5CC(O)C(O)C(C)O5)C(O)C(C)O4)c(C)c(O)c3c(O)c2C(=O)[C@H]1OC1CC(OC2CC(OC3CC(C)(O)C(O)C(C)O3)C(O)C(C)O2)C(O)C(C)O1 (stereo not given in full)",
    "growth": "-9.9% (active)"
  },
  {
    "Compound": "NN1C(=O)CSC1=S",
    "growth": "94% (inactive)"
  },
  {
    "Compound": "CN1CCN(Cc2ccc(NC(=O)c3[nH]ncc3Nc3ncnc4sc5c(c34)CCCC5)cc2)CC1",
    "growth": "-82.9% (active)"
  }
]

Please examine the following record next.
QUERY: Could you tell me which growth is on file for CC1(COc2ccc3c(c2)ncn3-c2ccc3cccc(N4CCC(N)CC4)c3n2)COC1 ?
RESULT: -3.3% (active)

* * *

- System: A498 renal
- Procedure Text: NCI-60 one-dose screen, 48 h
- Study Conditions: 10 µM unless noted
This is part of a sample that, as a whole, favours compounds with a hit. Of some 83,000 tested, about 20% had one in any assay. Calls of active or inactive are those of the source. The calls were made as follows: active = growth percent below 10; inactive = the rest.
Returns: one label drawn from active, inactive

[
  {
    "Line Notation": "C#Cc1cccc(Nc2ncnc3cc(OCCOC)c(OCCOC)cc23)c1",
    "Assigned Class": "inactive"
  },
  {
    "Line Notation": "CN(C)C1CCN(C(=O)c2ccc(NC(=O)Nc3ccc(-c4nc(N5CCOCC5)nc(N5CCOCC5)n4)cc3)cc2)CC1",
    "Assigned Class": "active"
  },
  {
    "Line Notation": "CCCCN1CCCC[C@@H]1C(=O)N[C@H](C(=O)N(C)[C@H](CCc1nc(C(=O)N[C@@H](Cc2ccccc2)C[C@H](C)C(=O)OC)cs1)C(C)C)C(C)C",
    "Assigned Class": "inactive"
  }
]

QUERY: Dear colleague, could you share the recorded outcome for CN1CCN(c2ccc(OC(F)(F)F)c(Nc3ncc4c(n3)-c3c(c(C(N)=O)nn3CCO)CC4)c2)CC1 when you have a moment?
RESULT: active

* * *

- Test system: SK-MEL-28 melanoma
- Procedure Text: NCI-60 one-dose screen, 48 h (100 = growth as untreated, 0 = no growth, -100 = all killed)
- Study Conditions: 10 µM unless noted
This is part of a sample that, as a whole, favours compounds with a hit. Of some 83,000 tested, about 20% had one in any assay.
Label Yes when growth is strictly below 60%; otherwise label No.

Example entries and their recorded answers appear below.
[
  {
    "Molecule": "Cc1cc(Nc2cc(N3CCN(C)CC3)nc(Sc3ccc(NC(=O)C4CC4)cc3)n2)n[nH]1",
    "Assigned Class": "Yes"
  },
  {
    "Molecule": "CC(N)C(Cc1ccc(Cl)cc1)c1ccc(Cl)cc1 (stereo not given)",
    "Assigned Class": "No"
  }
]

QUERY: For C=CC(=O)N1CCC(Oc2cc3c(Nc4ccc(Cl)c(Cl)c4F)ncnc3cc2OC)CC1 , is the recorded growth below the cut-off of 60%?
RESULT: No

QUERY: For COc1ccc(C2CC(=O)c3c(O)c(OC)c(OC)c(OC)c3O2)cc1O (stereo not given) , is the recorded growth below the cut-off of 60%?
RESULT: Yes
